Target: Voltage-gated inwardly rectifying potassium channel KCNH2 (Homo sapiens); further: assay procedure not described here
Sequence (Q12809 whole entry): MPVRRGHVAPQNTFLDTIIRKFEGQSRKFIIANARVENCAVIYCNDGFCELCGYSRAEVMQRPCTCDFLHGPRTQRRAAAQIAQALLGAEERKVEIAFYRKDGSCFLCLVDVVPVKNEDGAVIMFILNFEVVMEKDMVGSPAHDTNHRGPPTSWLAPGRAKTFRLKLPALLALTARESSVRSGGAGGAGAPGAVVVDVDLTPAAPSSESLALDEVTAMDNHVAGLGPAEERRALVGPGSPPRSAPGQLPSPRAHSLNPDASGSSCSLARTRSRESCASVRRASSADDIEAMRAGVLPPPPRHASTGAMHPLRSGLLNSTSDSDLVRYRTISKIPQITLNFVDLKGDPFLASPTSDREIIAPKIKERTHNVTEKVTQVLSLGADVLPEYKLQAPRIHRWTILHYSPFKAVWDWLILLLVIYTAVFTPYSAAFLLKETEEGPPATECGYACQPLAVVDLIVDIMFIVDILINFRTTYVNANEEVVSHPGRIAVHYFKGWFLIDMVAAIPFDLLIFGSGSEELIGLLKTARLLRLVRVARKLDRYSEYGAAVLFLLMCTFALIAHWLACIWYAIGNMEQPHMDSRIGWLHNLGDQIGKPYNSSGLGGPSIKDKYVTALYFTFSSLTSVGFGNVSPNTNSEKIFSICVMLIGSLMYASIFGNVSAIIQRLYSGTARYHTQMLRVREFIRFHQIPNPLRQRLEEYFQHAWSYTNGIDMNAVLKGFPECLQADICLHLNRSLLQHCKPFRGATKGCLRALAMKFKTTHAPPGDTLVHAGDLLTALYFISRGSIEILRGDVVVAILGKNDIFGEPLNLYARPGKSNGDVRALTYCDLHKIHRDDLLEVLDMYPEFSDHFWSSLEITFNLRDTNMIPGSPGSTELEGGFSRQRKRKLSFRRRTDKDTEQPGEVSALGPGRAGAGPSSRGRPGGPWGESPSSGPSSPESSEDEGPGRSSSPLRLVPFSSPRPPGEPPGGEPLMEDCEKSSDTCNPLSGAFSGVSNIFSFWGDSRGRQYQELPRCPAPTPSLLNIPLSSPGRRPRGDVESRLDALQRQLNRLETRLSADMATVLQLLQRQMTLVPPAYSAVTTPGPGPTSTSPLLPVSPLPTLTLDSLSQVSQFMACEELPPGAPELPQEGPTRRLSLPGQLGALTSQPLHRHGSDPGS
Type: functional
Conditions: read-out: AC50
READOUT: AC50 (µM)
Give bare numbers, in µM.

>>> data_value("CCCSc1ccc2nc(NC(=O)OC)[nH]c2c1 [ALBENDAZOLE]")
10.4

Could you now consider this next compound?
Prompt line: Find the recorded AC50 belonging to CN1CCN(CC/C=C2/c3ccccc3Sc3ccc(S(=O)(=O)N(C)C)cc32)CC1 [THIOTHIXENE] and report it.
Response line: 1.63

====

Molecular target: Alpha-1A adrenergic receptor (Homo sapiens, UniProt P35348); further: assay procedure not described here
Sequence (P35348 whole entry): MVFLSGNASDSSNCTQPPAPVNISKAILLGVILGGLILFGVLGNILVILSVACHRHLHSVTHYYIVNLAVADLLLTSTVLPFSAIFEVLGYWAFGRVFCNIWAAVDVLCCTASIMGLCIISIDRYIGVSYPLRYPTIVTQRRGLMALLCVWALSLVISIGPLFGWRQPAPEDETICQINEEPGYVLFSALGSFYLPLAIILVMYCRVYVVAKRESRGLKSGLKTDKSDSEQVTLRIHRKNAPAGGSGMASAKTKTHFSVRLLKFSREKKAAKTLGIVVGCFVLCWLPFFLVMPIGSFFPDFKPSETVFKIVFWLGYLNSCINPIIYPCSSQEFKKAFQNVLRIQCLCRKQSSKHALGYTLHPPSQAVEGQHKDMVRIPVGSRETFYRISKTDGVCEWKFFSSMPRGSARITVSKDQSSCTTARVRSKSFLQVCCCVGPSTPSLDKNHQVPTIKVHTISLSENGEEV
Type: functional, cell-based
READOUT: AC50

Recorded results for 5 compounds are shown here.
>>> data_value("CCOC(=O)[C@H](CCc1ccccc1)N[C@@H](C)C(=O)N1C(=O)N(C)C[C@H]1C(=O)O")
"> 30 µM"
>>> data_value("CN1CCC(=C2c3ccccc3CCc3sccc32)CC1 [PIZOTYLINE]")
"> 30 µM"
>>> data_value("CC/C(=C(\\c1ccccc1)c1ccc(OCCN(C)C)cc1)c1ccccc1 [TAMOXIFEN]")
"> 30 µM"
>>> data_value("CO[C@H]1C[C@@H]2CC[C@@H](C)[C@@](O)(O2)C(=O)C(=O)N2CCCC[C@H]2C(=O)O[C@H]([C@H](C)C[C@@H]2CC[C@@H](O)[C@H](OC)C2)CC(=O)[C@H](C)/C=C(\\C)[C@@H](O)[C@@H](OC)C(=O)[C@H](C)C[C@H](C)/C=C/C=C/C=C/1C [SIROLIMUS]")
"> 30 µM"
>>> data_value("CC1(C)O[C@@H]2C[C@H]3[C@@H]4CCC5=CC(=O)C=C[C@]5(C)[C@H]4[C@@H](O)C[C@]3(C)[C@]2(C(=O)CO)O1 [DESONIDE]")
"> 30 µM"

Prompt line: Find the recorded AC50 belonging to CCCc1nc(C(C)(C)O)c(C(=O)OCc2oc(=O)oc2C)n1Cc1ccc(-c2ccccc2-c2nnn[nH]2)cc1 [OLMESARTAN MEDOXOMIL] and report it.
Response line: > 30 µM

====

Target: Voltage-gated inwardly rectifying potassium channel KCNH2 (Homo sapiens); further: assay procedure not described here
Format: functional
Conditions: read-out: AC50
For each of the compounds below, state its AC50.

Recorded results for 5 compounds are shown here.
>>> data_value("CCCC(=O)O[C@]1(C(=O)CO)CC[C@H]2[C@@H]3CCC4=CC(=O)CC[C@]4(C)[C@H]3[C@@H](O)C[C@@]21C [HYDROCORTISONE BUTYRATE]")
"> 30 µM"
>>> data_value("C#C[C@]1(O)CC[C@H]2[C@@H]3CCc4cc(OC5CCCC5)ccc4[C@H]3CC[C@@]21C")
"> 30 µM"
>>> data_value("COC(=O)C1=C(C)NC(C)=C(C(=O)OC2CCCN(Cc3ccccc3)C2)C1c1cccc([N+](=O)[O-])c1 (stereo not given)")
"2.01 µM"
>>> data_value("CCC1(CC)C(=O)NCC(C)C1=O (stereo not given)")
"> 30 µM"
>>> data_value("c1ccc([C@H]2CN3CCSC3=N2)cc1")
"18.8 µM"

State the recorded AC50 for every item in the following list.
1. CCCC(C)C1(CC)C(=O)NC(=O)NC1=O (stereo not given)
2. N=c1ccn2c(n1)O[C@H]1[C@H](O)[C@@H](CO)O[C@H]12
3. COc1ccccc1OCCNCC(O)c1ccc(C)c(S(N)(=O)=O)c1 (stereo not given)
4. Nc1ccc(S(=O)(=O)c2cnc(N)s2)cc1
5. CC(C)(C)C(=O)C(Oc1ccc(Cl)cc1)n1ccnc1 (stereo not given)

Response line:
> 30 µM
> 30 µM
15 µM
> 30 µM
> 30 µM

State the recorded AC50 for every item in the following list.
1. CC(C[N+](C)(C)C)OC(N)=O (stereo not given)
2. Cc1ccccc1OCC(O)CO (stereo not given)
3. Brc1c(NC2=NCCN2)ccc2nccnc12

Response line:
["> 30 µM", "> 30 µM", "> 30 µM"]

State the recorded AC50 for every item in the following list.
1. CC(C)Cn1cnc2c(N)nc3ccccc3c21
2. COc1ccc2c(c1)N(C[C@H](C)CN(C)C)c1ccccc1S2
3. CCN1CCN(C(=O)N[C@@H](C(=O)N[C@@H]2C(=O)N3C(C(=O)O)=C(CSc4nnnn4C)CS[C@H]23)c2ccc(O)cc2)C(=O)C1=O
4. O=c1[nH]c(=O)n([C@H]2C[C@H](O)[C@@H](CO)O2)cc1F
5. Cc1nnc2n1-c1ccc(Cl)cc1C(c1ccccc1Cl)=NC2

Response line:
28.3 µM
11 µM
> 30 µM
> 30 µM
> 30 µM

State the recorded AC50 for every item in the following list.
1. NCC(=O)CCC(=O)O
2. COc1cc2c(N)nc(N3CCN(C(=O)OCC(C)(C)O)CC3)nc2c(OC)c1OC
3. CCOC(=O)[C@H](CCc1ccccc1)N[C@@H](C)C(=O)N1CC2(C[C@H]1C(=O)O)SCCS2

Response line:
1. > 30 µM
2. 17 µM
3. > 30 µM

State the recorded AC50 for every item in the following list.
1. Cc1oc(=O)oc1CN1CCN(c2cc3c(cc2F)c(=O)c(C(=O)O)c2n3C(C)S2)CC1 (stereo not given)
2. N=C1CCCN1Cc1[nH]c(=O)[nH]c(=O)c1Cl
3. C[C@]1(O)CC[C@H]2[C@@H]3CCC4=CC(=O)CC[C@]4(C)[C@@]3(F)[C@@H](O)C[C@@]21C

Response line:
["> 30 µM", "> 30 µM", "> 30 µM"]

State the recorded AC50 for every item in the following list.
1. CN1C(=O)OC(C)(C)C1=O
2. NS(=O)(=O)Cc1noc2ccccc12 [ZONISAMIDE]
3. O=C(O)c1ccccc1C(=O)Nc1ccc(S(=O)(=O)Nc2nccs2)cc1
4. CN(C)[C@@H](c1cccc(O)c1)[C@H]1CCCC[C@H]1O
5. CC(C)OC(=O)CCC/C=C\C[C@@H]1[C@@H](CC[C@@H](O)CCc2ccccc2)[C@H](O)C[C@@H]1O

Response line:
1. > 30 µM
2. > 30 µM
3. > 30 µM
4. > 30 µM
5. > 30 µM

State the recorded AC50 for every item in the following list.
1. OC[C@@H](O)[C@H](O)[C@@H](O)CO
2. COc1ccccc1N1CCN(CC(O)COc2cccc3ccccc23)CC1 (stereo not given)
3. C[C@H]1COc2c(C3(N)CC3)c(F)cc3c(=O)c(C(=O)O)cn1c23

Response line:
1. > 30 µM
2. 0.87 µM
3. > 30 µM

State the recorded AC50 for every item in the following list.
1. C[C@](N)(Cc1ccc(O)c(O)c1)C(=O)O
2. CO[C@H]1C[C@@H]2CC[C@@H](C)[C@@](O)(O2)C(=O)C(=O)N2CCCC[C@H]2C(=O)O[C@H]([C@H](C)C[C@@H]2CC[C@@H](O)[C@H](OC)C2)CC(=O)[C@H](C)/C=C(\C)[C@@H](O)[C@@H](OC)C(=O)[C@H](C)C[C@H](C)/C=C/C=C/C=C/1C
3. CNC(=O)c1ccccc1Sc1ccc2c(/C=C/c3ccccn3)n[nH]c2c1

Response line:
> 30 µM
> 30 µM
> 30 µM
